Provide the recorded cytotoxicity at 70.5 h for the entries that follow.
ASSAY_REMARKS: Human HepG2 cell viability assay in 384 well format
Assay type: toxicity, cell-based
Set-up: dose 125 nL, time 70.5 hour; concentration not given beside the values
MEASUREMENT_PARAMETERS: HepG2 cells, read-out: Inhibition
Numeric answer only, unit % assumed.

Reported cytotoxicity at 70.5 h of CN(Cc1n[nH]c(=O)n1Cc1ccccc1F)S(C)(=O)=O : 5.65

The compound listed as CCC(C)N(Cc1sccc1C)C(=O)c1cnc[nH]1 (stereo not given) shows cytotoxicity at 70.5 h equal to -6.28

# cytotoxicity at 70.5 h (compound: COCCn1c2c(ccc1=O)CCN(C(=O)CC1CC1)CC2 ) is -2.25

The reported cytotoxicity at 70.5 h of the compound COc1cccc2c1CCCCN2C(=O)c1oc(C)nc1C was 0.154

Lab book: cytotoxicity at 70.5 h of O=C(CCc1ccsc1)NC1CCN(c2cccc(F)c2)CC1 noted as 4.39
